Tested on: Acinetobacter baumannii
procedure.text: Antimicrobial activity against Acinetobacter baumannii isolate 9 by broth microdilution assay
Assay type: functional
measured.endpoint: MIC

Field: example entries. Status: answers known.
Just so you know, measured MIC for C[C@@H](O)[C@H]1C(=O)N2C(C(=O)O)=C(SCCNC=N)C[C@H]12 [IMIPENEM ANHYDROUS] came out at > 8 µg/mL

The value of MIC measured for the compound NC[C@H]1O[C@H](O[C@H]2[C@H](O)[C@@H](O[C@H]3O[C@H](CO)[C@@H](O)[C@H](N)[C@H]3O)[C@H](N)C[C@@H]2N)[C@H](N)C[C@@H]1O turned out to be > 8 µg/mL

Lookup result for C[C@@H](O)[C@H]1C(=O)N2C(C(=O)O)=C(S[C@@H]3CN[C@H](C(=O)N(C)C)C3)[C@H](C)[C@H]12 ; measured MIC: > 8 µg/mL

Short answer for CO/N=C(\C(=O)N[C@@H]1C(=O)N2C(C(=O)[O-])=C(C[N+]3(C)CCCC3)CS[C@H]12)c1csc(N)n1 [CEFEPIME] : MIC was 32 µg/mL

So, CC(C)(O/N=C(\C(=O)N[C@@H]1C(=O)N2C(C(=O)[O-])=C(C[n+]3ccccc3)CS[C@H]12)c1csc(N)n1)C(=O)O ? Its MIC was > 32 µg/mL

Sure, the documented MIC for CC1(C)S[C@@H]2[C@H](NC(=O)[C@H](C(=O)O)c3ccsc3)C(=O)N2[C@H]1C(=O)O is > 64 µg/mL

Moving on to the next compound.
Query O=C(O)c1cn(C2CC2)c2cc(N3CCNCC3)c(F)cc2c1=O yields MIC of > 2 µg/mL

* * *

System: Acinetobacter baumannii
procedure.text: Antimicrobial activity against Acinetobacter baumannii isolate 45 by broth microdilution assay
Type: functional
measured.endpoint: MIC

Record MIC for all entries; do not skip any.
1. CO/N=C(\C(=O)N[C@@H]1C(=O)N2C(C(=O)[O-])=C(C[N+]3(C)CCCC3)CS[C@H]12)c1csc(N)n1 [CEFEPIME]
2. NCC[C@H](O)C(=O)N[C@@H]1C[C@H](N)[C@@H](O[C@H]2O[C@H](CN)[C@@H](O)[C@H](O)[C@H]2O)[C@H](O)[C@H]1O[C@H]1O[C@H](CO)[C@@H](O)[C@H](N)[C@H]1O [AMIKACIN]
3. CC(C)(O/N=C(\C(=O)N[C@@H]1C(=O)N2C(C(=O)[O-])=C(C[n+]3ccccc3)CS[C@H]12)c1csc(N)n1)C(=O)O [CEFTAZIDIME]
4. NC[C@H]1O[C@H](O[C@H]2[C@H](O)[C@@H](O[C@H]3O[C@H](CO)[C@@H](O)[C@H](N)[C@H]3O)[C@H](N)C[C@@H]2N)[C@H](N)C[C@@H]1O [TOBRAMYCIN]
5. O=C(O)c1cn(C2CC2)c2cc(N3CCNCC3)c(F)cc2c1=O [CIPROFLOXACIN]

*A*
1. 8 µg/mL
2. ≤ 2 µg/mL
3. > 32 µg/mL
4. 8 µg/mL
5. > 2 µg/mL

Here are 3 molecules. What values of MIC were reported for them?
1. CN(C)c1ccc(O)c2c1C[C@H]1C[C@H]3[C@H](N(C)C)C(O)=C(C(N)=O)C(=O)[C@@]3(O)C(O)=C1C2=O [MINOCYCLINE]
2. C[C@@H](O)[C@H]1C(=O)N2C(C(=O)O)=C(S[C@@H]3CN[C@H](C(=O)N(C)C)C3)[C@H](C)[C@H]12 [MEROPENEM]
3. CCN1CCN(C(=O)N[C@@H](C(=O)N[C@@H]2C(=O)N3[C@@H]2SC(C)(C)[C@@H]3C(=O)O)c2ccccc2)C(=O)C1=O [PIPERACILLIN]

*A*
1: 2 µg/mL; 2: 8 µg/mL; 3: > 64 µg/mL

* * *

Test system: Acinetobacter baumannii
procedure.text: Antimicrobial activity against Acinetobacter baumannii isolate 26 by broth microdilution assay
Assay type: functional
Assign MIC to each entry below.

Known results for compounds:
Documented MIC of NCC[C@H](O)C(=O)N[C@@H]1C[C@H](N)[C@@H](O[C@H]2O[C@H](CN)[C@@H](O)[C@H](O)[C@H]2O)[C@H](O)[C@H]1O[C@H]1O[C@H](CO)[C@@H](O)[C@H](N)[C@H]1O [AMIKACIN] : ≤ 2 µg/mL

# MIC of CO/N=C(\C(=O)N[C@@H]1C(=O)N2C(C(=O)[O-])=C(C[N+]3(C)CCCC3)CS[C@H]12)c1csc(N)n1 [CEFEPIME] = 16 µg/mL

MIC in this record for CC1(C)S[C@@H]2[C@H](NC(=O)[C@H](C(=O)O)c3ccsc3)C(=O)N2[C@H]1C(=O)O [TICARCILLIN] : 32 µg/mL

Go through the items and report each one's MIC.
1. CC(C)(O/N=C(\C(=O)N[C@@H]1C(=O)N2C(C(=O)[O-])=C(C[n+]3ccccc3)CS[C@H]12)c1csc(N)n1)C(=O)O [CEFTAZIDIME]
2. NC[C@H]1O[C@H](O[C@H]2[C@H](O)[C@@H](O[C@H]3O[C@H](CO)[C@@H](O)[C@H](N)[C@H]3O)[C@H](N)C[C@@H]2N)[C@H](N)C[C@@H]1O [TOBRAMYCIN]

*A*
1: > 32 µg/mL; 2: ≤ 1 µg/mL

* * *

System: Acinetobacter baumannii
procedure.text: Antimicrobial activity against Acinetobacter baumannii isolate 9 by broth microdilution assay
Assay type: functional
measured.endpoint: MIC

The examples below pair each entry with its known result.
For this molecule ( C[C@H]1COc2c(N3CCN(C)CC3)c(F)cc3c(=O)c(C(=O)O)cn1c23.C[C@H]1COc2c(N3CCN(C)CC3)c(F)cc3c(=O)c(C(=O)O)cn1c23.O ), measured MIC is > 4 µg/mL

The molecule listed as NCC[C@H](O)C(=O)N[C@@H]1C[C@H](N)[C@@H](O[C@H]2O[C@H](CN)[C@@H](O)[C@H](O)[C@H]2O)[C@H](O)[C@H]1O[C@H]1O[C@H](CO)[C@@H](O)[C@H](N)[C@H]1O shows MIC equal to > 32 µg/mL

Lab note: CCN1CCN(C(=O)N[C@@H](C(=O)N[C@@H]2C(=O)N3[C@@H]2SC(C)(C)[C@@H]3C(=O)O)c2ccccc2)C(=O)C1=O gave MIC of > 64 µg/mL

Please look at the following molecule next.
So for CN(C)c1ccc(O)c2c1C[C@H]1C[C@H]3[C@H](N(C)C)C(O)=C(C(N)=O)C(=O)[C@@]3(O)C(O)=C1C2=O , the logged MIC turned out to be 8 µg/mL

* * *

For each of the compounds below, state its MIC.
Tested on: Acinetobacter baumannii
procedure.text: Antimicrobial activity against Acinetobacter baumannii isolate 45 by broth microdilution assay
Assay type: functional

For C[C@@H](O)[C@H]1C(=O)N2C(C(=O)O)=C(SCCNC=N)C[C@H]12 [IMIPENEM ANHYDROUS] the compound record lists MIC as > 8 µg/mL

Provide MIC values for the following items, in order.
1. CC1(C)S[C@@H]2[C@H](NC(=O)[C@H](C(=O)O)c3ccsc3)C(=O)N2[C@H]1C(=O)O [TICARCILLIN]
2. C[C@H]1COc2c(N3CCN(C)CC3)c(F)cc3c(=O)c(C(=O)O)cn1c23.C[C@H]1COc2c(N3CCN(C)CC3)c(F)cc3c(=O)c(C(=O)O)cn1c23.O [LEVOFLOXACIN]

*A*
1. > 64 µg/mL
2. > 4 µg/mL

* * *

System: Acinetobacter baumannii
procedure.text: Antimicrobial activity against Acinetobacter baumannii isolate 26 by broth microdilution assay
Format: functional
Please go through the items and note down their MIC.

Examples with answers:
Summary: C[C@H]1COc2c(N3CCN(C)CC3)c(F)cc3c(=O)c(C(=O)O)cn1c23.C[C@H]1COc2c(N3CCN(C)CC3)c(F)cc3c(=O)c(C(=O)O)cn1c23.O [LEVOFLOXACIN] , Acinetobacter baumannii, MIC = > 4 µg/mL

Case C[C@@H](O)[C@H]1C(=O)N2C(C(=O)O)=C(SCCNC=N)C[C@H]12 [IMIPENEM ANHYDROUS] , Acinetobacter baumannii, MIC recorded as ≤ 1 µg/mL

# MIC measured on Acinetobacter baumannii for item CN(C)c1ccc(O)c2c1C[C@H]1C[C@H]3[C@H](N(C)C)C(O)=C(C(N)=O)C(=O)[C@@]3(O)C(O)=C1C2=O [MINOCYCLINE] = 2 µg/mL

Item O=C(O)c1cn(C2CC2)c2cc(N3CCNCC3)c(F)cc2c1=O [CIPROFLOXACIN] was tested on Acinetobacter baumannii; the reported MIC is > 2 µg/mL

Reading of MIC for CCN1CCN(C(=O)N[C@@H](C(=O)N[C@@H]2C(=O)N3[C@@H]2SC(C)(C)[C@@H]3C(=O)O)c2ccccc2)C(=O)C1=O [PIPERACILLIN] with Acinetobacter baumannii: > 64 µg/mL

For the next question, use this compound.
Form field, MIC with Acinetobacter baumannii, item C[C@@H](O)[C@H]1C(=O)N2C(C(=O)O)=C(S[C@@H]3CN[C@H](C(=O)N(C)C)C3)[C@H](C)[C@H]12 [MEROPENEM] : 1 µg/mL

meta.source: ChEMBL document CHEMBL3784957
